Test system: HIV
Experiment: MT4 assay: antiviral HIV activity (cell protection, cell titer glo readout at 96 hours)
Format: cell-based
Conditions: Human immunodeficiency virus 1, MT4, 96 h, MT4 cells, cell titer glo readout at 96 hours, 10 point dose response; read-out: HIV MT4 Assay IC50
Experimental: […] Luciferase activity was measured 96 hours later by adding a cell titer glo (Promega, Madison, Wis.). […] Under the same condition, cytotoxicity of the compounds was determined using cell titer Glo™ (Promega, Madison, Wis.). […]
IC50 values for the molecules below.
property-label: IC50

molecule	property-label	obs-value
Cc1nc2c(cc(-c3ccnc(N4CCN(C5CC5)CC4)c3)n2C)c(-c2cc(F)c3c(c2C)CCCO3)c1[C@H](OC(C)(C)C)C(=O)O (atropisomer, axis not shown)	IC50	15 nM
Cc1nc2c(cc(C(=O)N3CCN(CC(=O)N4CCCC4)CC3)n2C)c(-c2cc(F)c3c(c2C)CCCO3)c1[C@H](OC(C)(C)C)C(=O)O	IC50	6040 nM
Cc1nc2c(cc(C(=O)N3[C@@H]4CC[C@H]3CC(N3CCOCC3)C4)n2C)c(-c2cc(F)c3c(c2C)CCCO3)c1[C@H](OC(C)(C)C)C(=O)O (some centres unmarked)	IC50	376 nM
Cc1nc2c(cc(-c3ccnc(-c4ccc5c(c4)NCC5)c3)n2C)c(-c2cc(F)c3c(c2C)CCCO3)c1[C@H](OC(C)(C)C)C(=O)O (atropisomer, axis not shown)	IC50	15 nM
Cc1nc2c(cc(-c3ccnc(N4CCCN5CCCC5C4)c3)n2C)c(-c2cc(F)c3c(c2C)CCCO3)c1[C@H](OC(C)(C)C)C(=O)O (some centres unmarked)	IC50	32.5 nM
Cc1nc2c(cc(-c3ccnc(N4CCC(C)CC4)c3)n2C)c(-c2cc(F)c3c(c2C)CCCO3)c1[C@H](OC(C)(C)C)C(=O)O (atropisomer, axis not shown)	IC50	21.3 nM
Cc1nc2c(cc(-c3ccnc(-c4ccc5c(c4)nnn5C)c3)n2C)c(-c2cc(F)c3c(c2C)CCCO3)c1[C@H](OC(C)(C)C)C(=O)O (atropisomer, axis not shown)	IC50	3.7 nM
Cc1nc2c(cc(-c3nc(N4CCN5CCC[C@H]5C4)ns3)n2C)c(-c2cc(F)c3c(c2C)CCCO3)c1[C@H](OC(C)(C)C)C(=O)O	IC50	4.1 nM
Cc1nc2c(cc(C(=O)N3CCN4CCCC4C3)n2C)c(-c2cc(F)c3c(c2C)CCCO3)c1[C@H](OC(C)(C)C)C(=O)O (some centres unmarked)	IC50	131 nM
Cc1nc2c(cc(C(=O)N3CCC(C)(C)CC3)n2C)c(-c2cc(F)c3c(c2C)CCCO3)c1[C@H](OC(C)(C)C)C(=O)O	IC50	31.4 nM
COC1CCN(c2nsc(-c3cc4c(-c5cc(F)c6c(c5C)CCCO6)c([C@H](OC(C)(C)C)C(=O)O)c(C)nc4n3C)n2)CC1	IC50	13.1 nM

Values from patent US20150191469A1
